molecular target: ovine PGHS-1 (Ovis aries); construct: PGHS-1 was purified from sheep seminal vesicles as described earlier; tissue Oxford Biomedical Research, Inc. (supplier of the sheep seminal vesicles); host or cells: sheep seminal vesicles; assay: Time- and concentration-dependent inhibition of ovine PGHS-1, TLC assay (3 h preincubation); format: biochemical; settings: Table 1; cell printed in mM
assay endpoint: IC50

# IC50 lookup, item CC(=O)Oc1ccccc1SCCCCCCCC(=O)O [Compound 63, 2-Acetoxyphenyl-8-carboxyheptyl sulfide]
> 1 mM

---

target: hCOX-2 (Homo sapiens); construct: made in house; host or cells: insect cells (baculovirus vectors); test: Time- and concentration-dependent inhibition of hCOX-2 (1 h incubation); format: biochemical; conditions: Table 3; 1 h at rt, average of duplicates; read-out: IC50 hCOX-2
Sequence (P35354 18-604): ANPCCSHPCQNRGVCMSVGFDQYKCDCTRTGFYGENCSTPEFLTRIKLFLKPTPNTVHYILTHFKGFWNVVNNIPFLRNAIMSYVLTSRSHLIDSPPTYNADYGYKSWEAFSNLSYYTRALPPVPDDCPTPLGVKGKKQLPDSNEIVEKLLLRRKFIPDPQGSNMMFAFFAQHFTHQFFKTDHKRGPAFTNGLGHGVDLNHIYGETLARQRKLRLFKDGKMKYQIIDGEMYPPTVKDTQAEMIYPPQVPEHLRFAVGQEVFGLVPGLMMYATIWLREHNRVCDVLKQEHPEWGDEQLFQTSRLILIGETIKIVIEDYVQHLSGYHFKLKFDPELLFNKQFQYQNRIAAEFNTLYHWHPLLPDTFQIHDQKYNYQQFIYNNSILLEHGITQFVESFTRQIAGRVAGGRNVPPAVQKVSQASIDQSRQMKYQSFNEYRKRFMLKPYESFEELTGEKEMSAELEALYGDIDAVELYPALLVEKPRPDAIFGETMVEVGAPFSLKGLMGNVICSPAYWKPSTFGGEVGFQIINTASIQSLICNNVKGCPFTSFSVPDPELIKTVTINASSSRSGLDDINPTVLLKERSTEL
assay endpoint: IC50 (µM)
Your answer is read as µM, so omit the unit and give the number.

# IC50 lookup, item CCCC#CCCSc1ccccc1OC(C)=O [Compound 115, 2-Acetoxyephenylhept-3-ynyl sulfide]
6.5

---

molecular target: ovine PGHS-1 (Ovis aries, UniProt P05979); construct: PGHS-1 was purified from sheep seminal vesicles as described earlier; tissue Oxford Biomedical Research, Inc. (supplier of the sheep seminal vesicles); host or cells: sheep seminal vesicles; test: Time- and concentration-dependent inhibition of ovine PGHS-1, TLC assay (3 h preincubation); format: biochemical; conditions: Table 1; 22 nM enzyme, 3 h at room temperature, 50 μM 14C-arachidonic acid
Sequence (P05979 25-600): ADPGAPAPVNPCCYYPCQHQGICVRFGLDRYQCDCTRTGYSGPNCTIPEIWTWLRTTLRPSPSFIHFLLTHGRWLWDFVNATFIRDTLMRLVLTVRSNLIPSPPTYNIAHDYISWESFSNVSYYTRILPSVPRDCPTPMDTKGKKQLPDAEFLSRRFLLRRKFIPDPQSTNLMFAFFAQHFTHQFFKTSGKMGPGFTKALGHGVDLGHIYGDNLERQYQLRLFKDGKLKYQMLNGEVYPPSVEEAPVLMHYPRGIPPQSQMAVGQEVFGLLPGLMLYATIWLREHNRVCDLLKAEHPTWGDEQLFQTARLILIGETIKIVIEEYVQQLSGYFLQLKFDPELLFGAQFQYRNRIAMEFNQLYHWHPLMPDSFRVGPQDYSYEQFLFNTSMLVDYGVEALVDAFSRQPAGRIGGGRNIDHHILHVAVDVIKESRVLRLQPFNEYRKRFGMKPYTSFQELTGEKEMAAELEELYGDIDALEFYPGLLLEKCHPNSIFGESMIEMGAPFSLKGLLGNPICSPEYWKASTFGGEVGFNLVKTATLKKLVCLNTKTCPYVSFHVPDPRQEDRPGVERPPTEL
Overview of recorded pIC50 for various compounds
Note on pIC50: it is the negative log10 of concentration, concentration in mol/L.

# pIC50 lookup, item CSc1ccccc1OC(=O)CBr
3.49

Another: CSc1ccccc1OC(=O)CCl
3.41

---

biological target: oCOX-1 (Ovis aries, UniProt P05979); construct: PGHS-1 was purified from sheep seminal vesicles as described earlier; tissue Oxford Biomedical Research, Inc. (supplier of the sheep seminal vesicles); host or cells: sheep seminal vesicles; assay: Time- and concentration-dependent inhibition of oCOX-1 (1 h incubation); assay type: biochemical, ovine; details: Table 3; 1 h at rt, average of duplicates; read-out: IC50 oCOX-1
Sequence (P05979 25-600): as the sequence (P05979 25-600) above
assay endpoint: IC50
Kindly write the number and append the unit.

# IC50 lookup, item CCCC#CCCSc1ccccc1OC(C)=O [Compound 115, 2-Acetoxyephenylhept-3-ynyl sulfide]
18 µM
